experimental.details: Bioavailability and pharmacokinetic study of crystalline Forms A and B of metaxalone, oral suspension, plasma by HPLC
Assay type: in vivo, female wistar rat
condition.details: female, Wistar, rat, plasma, po, 150 mg/kg, Mean of N=6 rats, female wistar rat, oral 150 mg/kg; read-out: AUCt Mean
measured.parameter: AUC(0-t)
Include the unit after the number when you answer.

Prompt: Return reported AUC(0-t); argument: Cc1cc(C)cc(OCC2CNC(=O)O2)c1 (single isomer, unassigned) [Form A]
Completion: 325 µg·h/mL

====

experimental.details: Bioavailability and pharmacokinetic study of crystalline Forms A and B of metaxalone, oral suspension, plasma by HPLC
Assay type: in vivo, female wistar rat
condition.details: female, Wistar, rat, plasma, po, 150 mg/kg, female wistar rats, fasting, oral 150 mg/kg, Mean ± SD (second Table IV)
measured.parameter: AUC(0-inf) (µg·h/mL)
Express it in µg·h/mL; write the number only.

Prompt: # input molecule: Cc1cc(C)cc(OCC2CNC(=O)O2)c1 (single isomer, unassigned) [Form A] ; wanted: its AUC(0-inf)
Completion: 451

====

experimental.details: Bioavailability and pharmacokinetic study of crystalline Forms A and B of metaxalone, oral suspension, plasma by HPLC
Format: in vivo, female wistar rat
condition.details: female, Wistar, rat, plasma, po, 150 mg/kg, individual rats 1-6, female wistar rat, oral 150 mg/kg; read-out: Cmax
Text: A study was undertaken to compare the bioavailability and pharmacokinetic profile of the two crystalline Forms A and B of metaxalone in female wistar rat under fasting condition. […] HPLC system of Shimadzu LC—2010CHT series equipped with shimadzu UV-VIS detector, analytical column YMC Pack ODS C-18, 5 μm, (150×4.6 mm) and a data acquisition system (LC solution software) were used for the quantitative determination of metaxalone in rat plasma. […]
measured.parameter: Cmax (ng/mL)
Field: numeric (ng/mL). Do not append units.

Prompt: What does the record list as Cmax for Cc1cc(C)cc(OCC2CNC(=O)O2)c1 (single isomer, unassigned) [Form A] ?
Completion: 43100

====

experimental.details: Bioavailability and pharmacokinetic study of crystalline Forms A and B of metaxalone, oral suspension, plasma by HPLC
Type: in vivo, female wistar rat
condition.details: female, Wistar, rat, plasma, po, 150 mg/kg, female wistar rats, oral 150 mg/kg, mean ± SD; unit inferred
measured.parameter: MRT last (h)
Output spec: scalar in h, unitless text.

Prompt: Could you share which MRT last value was measured for Cc1cc(C)cc(OCC2CNC(=O)O2)c1 (single isomer, unassigned) [Form A] ?
Completion: 5.49

====

experimental.details: Bioavailability and pharmacokinetic study of crystalline Forms A and B of metaxalone, oral suspension, plasma by HPLC
Format: in vivo, female wistar rat
condition.details: female, Wistar, rat, plasma, po, 150 mg/kg, female wistar rats, fasting, oral 150 mg/kg, Mean ± SD
measured.parameter: half-life (h)
Just the number please, in h, no unit attached.

Prompt: Data request, read-out half-life, for Cc1cc(C)cc(OCC2CNC(=O)O2)c1 (single isomer, unassigned) [Form A]
Completion: 7.25

====

experimental.details: Bioavailability and pharmacokinetic study of crystalline Forms A and B of metaxalone, oral suspension, plasma by HPLC
Type: in vivo, female wistar rat
condition.details: female, Wistar, rat, plasma, po, 150 mg/kg, female wistar rats, fasting, oral 150 mg/kg, plasma, Mean ± SD (second Table IV); read-out: AUClast
measured.parameter: AUC(0-t) (µg·h/mL)
Reply with just the number (in µg·h/mL).

Prompt: Field request: AUC(0-t) | item: Cc1cc(C)cc(OCC2CNC(=O)O2)c1 (single isomer, unassigned) [Form A]
Completion: 325
